system: human breast cancer MDA-231 cells; assay: MTT in vitro cytotoxicity, MDA-231; type: cell-based; conditions: MDA-231, MTT, 72 h incubation; read-out: IC50 values against MDA-231
With a cut-off of 5 µM, any IC50 strictly below it is called Met; any IC50 meeting it or above is called Not met.

{"columns": ["molecule", "measurementTarget", "category"],
 "data": [
  ["CC(C)N1CCNC1=[Se].CC(C)N1CCNC1=[Se].N.N.O=[N+]([O-])[O-].O=[N+]([O-])[O-].[Pt+2]", "human breast cancer MDA-231 cells", "Not met"],
  ["CNC(=[Se])NC.CNC(=[Se])NC.N.N.O=[N+]([O-])[O-].O=[N+]([O-])[O-].[Pt+2] [Complex 2, [Pt(NH3)2(Me2Seu)2](NO3)2]", "human breast cancer MDA-231 cells", "Not met"],
  ["CCCN1CCNC1=[Se].CCCN1CCNC1=[Se].N.N.O=[N+]([O-])[O-].O=[N+]([O-])[O-].[Pt+2] [Complex 5, trans-[Pt(NH3)2(PrImSe)2](NO3)2]", "human breast cancer MDA-231 cells", "Met"],
  ["N.N.O=[N+]([O-])[O-].O=[N+]([O-])[O-].[Pt+2].[Se]=C1NCCCCN1.[Se]=C1NCCCCN1 [Complex 7, [Pt(NH3)2(DiapSe)2](NO3)2]", "human breast cancer MDA-231 cells", "Not met"],
  ["N.N.NC(N)=[Se].NC(N)=[Se].O=[N+]([O-])[O-].O=[N+]([O-])[O-].[Pt+2] [Complex 1, [Pt(NH3)2(Seu)2](NO3)2]", "human breast cancer MDA-231 cells", "Met"],
  ["N.N.O=[N+]([O-])[O-].O=[N+]([O-])[O-].[Pt+2].[Se]=C1NCCN1.[Se]=C1NCCN1 [Complex 3, [Pt(NH3)2(ImSe)2](NO3)2]", "human breast cancer MDA-231 cells", "Not met"],
  ["CCN1CCNC1=[Se].CCN1CCNC1=[Se].N.N.O=[N+]([O-])[O-].O=[N+]([O-])[O-].[Pt+2] [Complex 4, [Pt(NH3)2(EtImSe)2](NO3)2]", "human breast cancer MDA-231 cells", "Met"]
]}

---

Tested on: human cervical cancer HeLa cells
Assay: MTT in vitro cytotoxicity, HeLa
Assay type: cell-based
Details: HeLa cells
Protocol: Solutions of Pt(II) complexes of selenone 1-7 and cisplatin at concentrations of 1.0 μM, 5.0 μM, 10.0 μM, 25.0 μM, and 50.0 μM were prepared in Dulbecco modified eagle medium (DMEM). […] The absorbance of the 96-well plate was measured at 570 nm with Mithras 2LB943 multimode microplate reader against reagent blank. […]

{"columns": ["molecule", "cytotoxicity compared to cisplatin"],
 "data": [
  ["CCN1CCNC1=[Se].CCN1CCNC1=[Se].N.N.O=[N+]([O-])[O-].O=[N+]([O-])[O-].[Pt+2] [Complex 4, [Pt(NH3)2(EtImSe)2](NO3)2]", "enhanced cytotoxicity"],
  ["N.N.NC(N)=[Se].NC(N)=[Se].O=[N+]([O-])[O-].O=[N+]([O-])[O-].[Pt+2] [Complex 1, [Pt(NH3)2(Seu)2](NO3)2]", "enhanced cytotoxicity"],
  ["CC(C)N1CCNC1=[Se].CC(C)N1CCNC1=[Se].N.N.O=[N+]([O-])[O-].O=[N+]([O-])[O-].[Pt+2]", "enhanced cytotoxicity"]
]}
